Hey, just so you know, these numbers are from PubChem BioAssay.

Experiment: viability gain of MRP-1-high H69AR cells under doxorubicin, pilot screen, MRP-1 activator project, CellTiter-Glo, duplicate (AID 807);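 further: compound pretreatment 18-22 h then 72 h combined with doxorubicin; 0% = doxorubicin alone and 100% = vehicle without doxorubicin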
Conditions: H69AR viability with doxorubicin, CellTiter-Glo luminescence; at 10 µM; stronger effect = higher value
RECORDED METRIC: viability increase (%)
Give the value in % but do not write % after it.

COMPOUND: C=CCSc1nc2c(c(=O)[nH]c(=O)n2C)n1Cc1ccc(C)cc1
NUMERIC READOUT: -3.38
--
COMPOUND: CC(=O)Nc1cc2c(cc1C(=O)c1ccccc1)OCCO2
NUMERIC READOUT: -0.99
--
COMPOUND: Cc1ccc(-c2n[nH]c(=S)n2C)cc1
NUMERIC READOUT: -1.46
--
COMPOUND: COc1ccc(N=C(C)C2=C(O)COC2=O)cc1
NUMERIC READOUT: -3.62
--
COMPOUND: Cc1ccc(-n2ncc3c(NCCCN4CCOCC4)ncnc32)c(C)c1
NUMERIC READOUT: -1.79

The compound listed as COc1ccccc1C1NC(=O)NC(C)=C1C(=O)OC1CCCCC1 (stereo not drawn) has a reported viability increase of 0.87

Looking up COc1ccc(S(=O)(=O)Cc2ccc(C(=O)NCc3ccc(F)cc3)o2)cc1 , I found its viability increase recorded as -0.39

The measured viability increase associated with O=C(Nc1nnc(-c2ccc(F)cc2)o1)c1ccco1 reads -3.74

Record O=C(CCCCn1c(=O)[nH]c2ccccc2c1=O)NC1CCN(Cc2ccccc2)CC1 . Reported viability increase: -0.32

Reported viability increase of CC(=O)c1ccc(NC(=O)CSc2nc3nc(C)cc(C)n3n2)cc1 : -1.88

Measured viability increase, COc1ccc(OCc2nnc3n2N=C(c2ccc(OC)cc2)CS3)cc1 : -2.84

###

Test: viability gain of MRP-1-high H69AR cells under doxorubicin, pilot screen, MRP-1 activator project, CellTiter-Glo, duplicate (AID 807);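 further: compound pretreatment 18-22 h then 72 h combined with doxorubicin; 0% = doxorubicin alone and 100% = vehicle without doxorubicin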
Details: H69AR viability with doxorubicin, CellTiter-Glo luminescence; at 10 µM; stronger effect = higher value
Activity calls are given as the source filed them.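 Rule for the calls: active = viability increase at or above a cutoff of the median across tested compounds plus 3 SD (cut at about 8.5% in these data, passing the limit was not always enough); inconclusive = some gains above the cutoff, reason not given; inactive = the rest.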
RECORDED METRIC: viability increase

These solved cases illustrate the format of a correct answer.
MOLECULE: CCC(C#CCN1CCOCC1)(CC)OCCC#N
viability increase: -0.51% (inactive)

MOLECULE: C=CCn1c(C(C)NC(=O)CCC)nc2ccccc21 (stereo not drawn)
viability increase: -0.88% (inactive)

MOLECULE: Brc1ccccc1OCCCN1CCOCC1
viability increase: 1.1% (inactive)

MOLECULE: CCN1c2ccccc2NC2C1C(C(C)=O)C(=O)N2c1ccc(Cl)cc1 (stereo not drawn)
viability increase: -5.03% (inactive)

MOLECULE: CCN1CCN(C(=O)c2cc3c(s2)-c2ccccc2S(=O)(=O)C3)CC1
viability increase: -2.15% (inactive)

Note to self: viability increase recorded for COc1ccc(NC(=O)c2ccc(CN3CCN(c4ccccc4)CC3)cc2)cc1 was -0.09% (inactive)

Form field viability increase, entry Cn1c(=O)c2c(SCC(=O)N3CCC(Cc4ccccc4)CC3)nc(C3CC3)nc2n(C)c1=O : -1.06% (inactive)

viability increase recorded for this molecule, CCOC(=O)c1sc(NC(=O)C2CCCO2)c(C(=O)OCC)c1C (stereo not drawn) , is -2.56% (inactive)

Lookup result for O=C(Cn1ncc2ccccc21)N1CCc2ccccc21 ; measured viability increase: -3% (inactive)

Looking up O=C1CC(C(=O)Nc2nccs2)C(c2ccccc2)O1 (stereo not drawn) , I see its viability increase listed as -0.76% (inactive)

Summary for this molecule, CC1CC(C)CN(S(=O)(=O)c2ccc(NC(=O)C3COc4ccccc4O3)cc2)C1 (stereo not drawn) : viability increase is -7.35% (inactive)
